Values from patent US7638556B2

Test: solubility in mixed solvent of ethanol and water by titration until completely dissolved (Example 1)
Assay type: physicochemical
Settings: aqueous with cosolvent or surfactant or cyclodextrin, thermodynamic from solid, ratio of ethanol 40 vol %, read-out: solubility A
endpoint: solubility (mg/mL)
Only the number, expressed in mg/mL, is required.

The reported value for CC(C)(C)C(=O)Oc1ccc(S(=O)(=O)Nc2ccccc2C(=O)NCC(=O)[O-])cc1.[Na+] in terms of solubility is 125

====

Experiment: solubility in mixed solvent of ethanol and water by titration until completely dissolved (Example 1)
Type: physicochemical
Conditions: organic solvent or mixture, thermodynamic from solid, ratio of ethanol 100 vol %, read-out: solubility A
endpoint: solubility (µg/mL)
Give just the number in µg/mL; leave the unit off.

solubility in this record for CC(C)(C)C(=O)Oc1ccc(S(=O)(=O)Nc2ccccc2C(=O)NCC(=O)[O-])cc1.[Na+] : 5000

====

Assay: solubility in mixed solvent of ethanol and water by titration until completely dissolved (Example 1)
Assay type: physicochemical
Settings: aqueous with cosolvent or surfactant or cyclodextrin, thermodynamic from solid, ratio of ethanol 25 vol %, read-out: solubility A
Experimental: By the following method, the concentration of compound (I) was measured when compound (I) was completely dissolved in various ratios of mixed solvent comprising water and ethanol. Above mixed solvent was titrated with various added volume for compound (I) and the mixture was vigorously stirred and was left alone for several minutes. The above operation was done repeatedly until confirming that the solute was completely dissolved by visual recognition. […]
endpoint: solubility (µg/mL)
A number alone suffices; assume µg/mL.

Looking up CC(C)(C)C(=O)Oc1ccc(S(=O)(=O)Nc2ccccc2C(=O)NCC(=O)[O-])cc1.[Na+] , I see its solubility listed as 1670

====

Test: solubility of compound (I) in water or ethanol
Assay type: physicochemical
Conditions: organic solvent or mixture; in ethanol
endpoint: solubility (µg/mL)
// return numeric value only (unit: µg/mL, not printed)

Query CC(C)(C)C(=O)Oc1ccc(S(=O)(=O)Nc2ccccc2C(=O)NCC(=O)[O-])cc1.[Na+] yields solubility of 6000

====

Test: solubility in mixed solvent of ethanol and water by titration until completely dissolved (Example 1)
Format: physicochemical
Conditions: aqueous with cosolvent or surfactant or cyclodextrin, thermodynamic from solid, ratio of ethanol 20 vol %, read-out: solubility B
endpoint: solubility (µg/mL)
Give just the numeric value; µg/mL need not be written.

What the record says about CC(C)(C)C(=O)Oc1ccc(S(=O)(=O)Nc2ccccc2C(=O)NCC(=O)[O-])cc1.[Na+] : solubility is 1670

====

Experiment: solubility in mixed solvent of ethanol and water by titration until completely dissolved (Example 1)
Format: physicochemical
Settings: water, thermodynamic from solid, ratio of ethanol 0 vol %, read-out: solubility B
endpoint: solubility (µg/mL)
Just the number please, in µg/mL, no unit attached.

Record summary for CC(C)(C)C(=O)Oc1ccc(S(=O)(=O)Nc2ccccc2C(=O)NCC(=O)[O-])cc1.[Na+] [compound (I)] : reported solubility = 230

====

Test: solubility in mixed solvent of ethanol and water by titration until completely dissolved (Example 1)
Format: physicochemical
Details: aqueous with cosolvent or surfactant or cyclodextrin, thermodynamic from solid, ratio of ethanol 60 vol %, read-out: solubility A
endpoint: solubility (mg/mL)
Field: numeric (mg/mL). Do not append units.

Record summary for CC(C)(C)C(=O)Oc1ccc(S(=O)(=O)Nc2ccccc2C(=O)NCC(=O)[O-])cc1.[Na+] [compound (I)] : reported solubility = 167

====

Experiment: solubility in mixed solvent of ethanol and water by titration until completely dissolved (Example 1)
Format: physicochemical
Conditions: organic solvent or mixture, thermodynamic from solid, ratio of ethanol 100 vol %, read-out: solubility B
Experimental: By the following method, the concentration of compound (I) was measured when compound (I) was completely dissolved in various ratios of mixed solvent comprising water and ethanol. Above mixed solvent was titrated with various added volume for compound (I) and the mixture was vigorously stirred and was left alone for several minutes. The above operation was done repeatedly until confirming that the solute was completely dissolved by visual recognition. […]
endpoint: solubility (µg/mL)
Report only the number, with the unit µg/mL understood.

Form: compound = CC(C)(C)C(=O)Oc1ccc(S(=O)(=O)Nc2ccccc2C(=O)NCC(=O)[O-])cc1.[Na+] ; solubility = 5560

====

Experiment: solubility in mixed solvent of ethanol and water by titration until completely dissolved (Example 1)
Assay type: physicochemical
Settings: aqueous with cosolvent or surfactant or cyclodextrin, thermodynamic from solid, ratio of ethanol 40 vol %, read-out: solubility B
endpoint: solubility (mg/mL)
Write the number in mg/mL without appending the unit.

The molecule listed as CC(C)(C)C(=O)Oc1ccc(S(=O)(=O)Nc2ccccc2C(=O)NCC(=O)[O-])cc1.[Na+] [compound (I)] has a reported solubility of 167

====

Assay: solubility in mixed solvent of ethanol and water by titration until completely dissolved (Example 1)
Assay type: physicochemical
Conditions: water, thermodynamic from solid, ratio of ethanol 0 vol %, read-out: solubility A
endpoint: solubility (µg/mL)
Expressed in µg/mL, but write only the number.

Form field solubility, entry CC(C)(C)C(=O)Oc1ccc(S(=O)(=O)Nc2ccccc2C(=O)NCC(=O)[O-])cc1.[Na+] : 220

====

Assay: solubility in mixed solvent of ethanol and water by titration until completely dissolved (Example 1)
Format: physicochemical
Conditions: aqueous with cosolvent or surfactant or cyclodextrin, thermodynamic from solid, ratio of ethanol 10 vol %, read-out: solubility B
Procedure: By the following method, the concentration of compound (I) was measured when compound (I) was completely dissolved in various ratios of mixed solvent comprising water and ethanol. Above mixed solvent was titrated with various added volume for compound (I) and the mixture was vigorously stirred and was left alone for several minutes. The above operation was done repeatedly until confirming that the solute was completely dissolved by visual recognition. […]
endpoint: solubility (µg/mL)
Number in µg/mL, nothing else.

Notebook: CC(C)(C)C(=O)Oc1ccc(S(=O)(=O)Nc2ccccc2C(=O)NCC(=O)[O-])cc1.[Na+] , solubility read as 910

====

Assay: solubility in mixed solvent of ethanol and water by titration until completely dissolved (Example 1)
Format: physicochemical
Settings: aqueous with cosolvent or surfactant or cyclodextrin, thermodynamic from solid, ratio of ethanol 15 vol %, read-out: solubility B
endpoint: solubility (µg/mL)
Output spec: scalar in µg/mL, unitless text.

Reported solubility ( CC(C)(C)C(=O)Oc1ccc(S(=O)(=O)Nc2ccccc2C(=O)NCC(=O)[O-])cc1.[Na+] ) = 1000

====

Assay: solubility in mixed solvent of ethanol and water by titration until completely dissolved (Example 1)
Assay type: physicochemical
Conditions: aqueous with cosolvent or surfactant or cyclodextrin, thermodynamic from solid, ratio of ethanol 70 vol %, read-out: solubility A
endpoint: solubility

// CC(C)(C)C(=O)Oc1ccc(S(=O)(=O)Nc2ccccc2C(=O)NCC(=O)[O-])cc1.[Na+] [compound (I)] : solubility value = 125 mg/mL

====

Experiment: solubility in mixed solvent of ethanol and water by titration until completely dissolved (Example 1)
Type: physicochemical
Details: aqueous with cosolvent or surfactant or cyclodextrin, thermodynamic from solid, ratio of ethanol 15 vol %, read-out: solubility A
endpoint: solubility (µg/mL)
Record the value in µg/mL, omitting the unit from your answer.

Recorded solubility (compound CC(C)(C)C(=O)Oc1ccc(S(=O)(=O)Nc2ccccc2C(=O)NCC(=O)[O-])cc1.[Na+] [compound (I)] ): 910

====

Assay: solubility in mixed solvent of ethanol and water by titration until completely dissolved (Example 1)
Assay type: physicochemical
Conditions: aqueous with cosolvent or surfactant or cyclodextrin, thermodynamic from solid, ratio of ethanol 90 vol %, read-out: solubility A
endpoint: solubility (mg/mL)
Numbers only here, please. The scale is mg/mL.

Entry CC(C)(C)C(=O)Oc1ccc(S(=O)(=O)Nc2ccccc2C(=O)NCC(=O)[O-])cc1.[Na+] — recorded solubility = 50

====

Test: solubility in mixed solvent of ethanol and water by titration until completely dissolved (Example 1)
Type: physicochemical
Conditions: aqueous with cosolvent or surfactant or cyclodextrin, thermodynamic from solid, ratio of ethanol 10 vol %, read-out: solubility A
endpoint: solubility (µg/mL)
Number only, in µg/mL; omit the unit.

// solubility lookup, compound = CC(C)(C)C(=O)Oc1ccc(S(=O)(=O)Nc2ccccc2C(=O)NCC(=O)[O-])cc1.[Na+] , result: 830

====

Assay: solubility in mixed solvent of ethanol and water by titration until completely dissolved (Example 1)
Format: physicochemical
Settings: aqueous with cosolvent or surfactant or cyclodextrin, thermodynamic from solid, ratio of ethanol 30 vol %, read-out: solubility B
endpoint: solubility
I'd appreciate it if you included the unit after the number.

Briefly, solubility measured for CC(C)(C)C(=O)Oc1ccc(S(=O)(=O)Nc2ccccc2C(=O)NCC(=O)[O-])cc1.[Na+] : 125 mg/mL

====

Assay: solubility in mixed solvent of ethanol and water by titration until completely dissolved (Example 1)
Type: physicochemical
Conditions: aqueous with cosolvent or surfactant or cyclodextrin, thermodynamic from solid, ratio of ethanol 20 vol %, read-out: solubility A
endpoint: solubility

For this molecule ( CC(C)(C)C(=O)Oc1ccc(S(=O)(=O)Nc2ccccc2C(=O)NCC(=O)[O-])cc1.[Na+] ), measured solubility is 1430 µg/mL

====

Test: solubility in mixed solvent of ethanol and water by titration until completely dissolved (Example 1)
Type: physicochemical
Details: aqueous with cosolvent or surfactant or cyclodextrin, thermodynamic from solid, ratio of ethanol 60 vol %, read-out: solubility B
endpoint: solubility (mg/mL)
Hi! Could you send only the number? It should be in mg/mL, unit omitted.

get_value(item= CC(C)(C)C(=O)Oc1ccc(S(=O)(=O)Nc2ccccc2C(=O)NCC(=O)[O-])cc1.[Na+] , readout=solubility) returns 250
